Source listed as ChEMBL document CHEMBL2029250.

Listed compounds paired with reported EC50
# target.system: Peroxisome proliferator-activated receptor gamma (Homo sapiens, UniProt P37231)
# Sequence (P37231 whole entry): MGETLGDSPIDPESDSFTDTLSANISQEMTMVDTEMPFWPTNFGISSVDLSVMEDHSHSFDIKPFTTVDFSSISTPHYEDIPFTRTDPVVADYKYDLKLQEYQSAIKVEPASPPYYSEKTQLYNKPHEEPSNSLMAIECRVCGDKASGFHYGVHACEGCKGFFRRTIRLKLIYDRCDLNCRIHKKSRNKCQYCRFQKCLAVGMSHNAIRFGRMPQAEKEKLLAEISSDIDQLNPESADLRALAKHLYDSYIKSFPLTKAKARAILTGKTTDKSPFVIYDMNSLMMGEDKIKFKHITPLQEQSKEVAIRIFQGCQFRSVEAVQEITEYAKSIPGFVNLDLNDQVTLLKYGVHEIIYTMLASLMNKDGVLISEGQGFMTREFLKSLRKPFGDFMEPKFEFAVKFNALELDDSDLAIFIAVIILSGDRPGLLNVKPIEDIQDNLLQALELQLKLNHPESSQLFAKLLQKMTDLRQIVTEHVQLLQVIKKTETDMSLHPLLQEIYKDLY
# experiment.description: Transactivation of human PPARgamma expressed in african green monkey CV1 cells by luciferase reporter gene assay
quantity: EC50

chemical.smiles | result
CC(C)=CCC/C(C)=C/Cc1c(O)cc(/C=C/c2cc(F)cc(F)c2)cc1O | 7 µM
CC(C)=CCC/C(C)=C/Cc1c(O)cc(/C=C/c2ccc(O)cc2)cc1O | 8 µM
CC(C)=CCC/C(C)=C/Cc1c(O)cc(/C=C/c2ccc(F)cc2)cc1O | 11 µM
CC(C)=CCC/C(C)=C/Cc1c(O)cc(/C=C/c2cccc(C(F)(F)F)c2)cc1O | 5 µM
COc1ccc(/C=C/c2cc(O)c(C/C=C(\C)CCC=C(C)C)c(O)c2)cc1 | 14 µM
CC(C)=CCC/C(C)=C/Cc1c(O)cc(/C=C/c2ccsc2)cc1O | 6 µM
CC(C)=CCC/C(C)=C/Cc1c(O)cc(/C=C/c2ccoc2)cc1O | 5 µM
CC(C)=CCC/C(C)=C/Cc1c(O)cc(/C=C/c2ccccc2)cc1O | 5 µM

====

Let's go through some IC50 measurements on Peroxisome proliferator-activated receptor gamma (Homo sapiens, UniProt P37231) together.

compound | IC50
COc1ccc(/C=C/c2cc(O)c(C/C=C(\C)CCC=C(C)C)c(O)c2)cc1 | 0.63 µM
CC(C)=CCC/C(C)=C/Cc1c(O)cc(/C=C/c2ccccc2)cc1O [AMORPHASTILBOL] | 0.85 µM
CC(C)=CCC/C(C)=C/Cc1c(O)cc(/C=C/c2cccc(C(F)(F)F)c2)cc1O | 0.53 µM
CC(C)=CCC/C(C)=C/Cc1c(O)cc(/C=C/c2cc(F)cc(F)c2)cc1O | 0.9 µM
CC(C)=CCC/C(C)=C/Cc1c(O)cc(/C=C/c2ccsc2)cc1O | 1.01 µM
CC(C)=CCC/C(C)=C/Cc1c(O)cc(/C=C/c2ccoc2)cc1O | 0.65 µM
CC(C)=CCC/C(C)=C/Cc1c(O)cc(/C=C/c2ccc(O)cc2)cc1O | 0.11 µM
